# SYSTEM_UNDER_TEST: CBP (Homo sapiens, UniProt Q92793)
# Construct: host or cells: A549 CBP HiBit cells
# Sequence (Q92793 whole entry): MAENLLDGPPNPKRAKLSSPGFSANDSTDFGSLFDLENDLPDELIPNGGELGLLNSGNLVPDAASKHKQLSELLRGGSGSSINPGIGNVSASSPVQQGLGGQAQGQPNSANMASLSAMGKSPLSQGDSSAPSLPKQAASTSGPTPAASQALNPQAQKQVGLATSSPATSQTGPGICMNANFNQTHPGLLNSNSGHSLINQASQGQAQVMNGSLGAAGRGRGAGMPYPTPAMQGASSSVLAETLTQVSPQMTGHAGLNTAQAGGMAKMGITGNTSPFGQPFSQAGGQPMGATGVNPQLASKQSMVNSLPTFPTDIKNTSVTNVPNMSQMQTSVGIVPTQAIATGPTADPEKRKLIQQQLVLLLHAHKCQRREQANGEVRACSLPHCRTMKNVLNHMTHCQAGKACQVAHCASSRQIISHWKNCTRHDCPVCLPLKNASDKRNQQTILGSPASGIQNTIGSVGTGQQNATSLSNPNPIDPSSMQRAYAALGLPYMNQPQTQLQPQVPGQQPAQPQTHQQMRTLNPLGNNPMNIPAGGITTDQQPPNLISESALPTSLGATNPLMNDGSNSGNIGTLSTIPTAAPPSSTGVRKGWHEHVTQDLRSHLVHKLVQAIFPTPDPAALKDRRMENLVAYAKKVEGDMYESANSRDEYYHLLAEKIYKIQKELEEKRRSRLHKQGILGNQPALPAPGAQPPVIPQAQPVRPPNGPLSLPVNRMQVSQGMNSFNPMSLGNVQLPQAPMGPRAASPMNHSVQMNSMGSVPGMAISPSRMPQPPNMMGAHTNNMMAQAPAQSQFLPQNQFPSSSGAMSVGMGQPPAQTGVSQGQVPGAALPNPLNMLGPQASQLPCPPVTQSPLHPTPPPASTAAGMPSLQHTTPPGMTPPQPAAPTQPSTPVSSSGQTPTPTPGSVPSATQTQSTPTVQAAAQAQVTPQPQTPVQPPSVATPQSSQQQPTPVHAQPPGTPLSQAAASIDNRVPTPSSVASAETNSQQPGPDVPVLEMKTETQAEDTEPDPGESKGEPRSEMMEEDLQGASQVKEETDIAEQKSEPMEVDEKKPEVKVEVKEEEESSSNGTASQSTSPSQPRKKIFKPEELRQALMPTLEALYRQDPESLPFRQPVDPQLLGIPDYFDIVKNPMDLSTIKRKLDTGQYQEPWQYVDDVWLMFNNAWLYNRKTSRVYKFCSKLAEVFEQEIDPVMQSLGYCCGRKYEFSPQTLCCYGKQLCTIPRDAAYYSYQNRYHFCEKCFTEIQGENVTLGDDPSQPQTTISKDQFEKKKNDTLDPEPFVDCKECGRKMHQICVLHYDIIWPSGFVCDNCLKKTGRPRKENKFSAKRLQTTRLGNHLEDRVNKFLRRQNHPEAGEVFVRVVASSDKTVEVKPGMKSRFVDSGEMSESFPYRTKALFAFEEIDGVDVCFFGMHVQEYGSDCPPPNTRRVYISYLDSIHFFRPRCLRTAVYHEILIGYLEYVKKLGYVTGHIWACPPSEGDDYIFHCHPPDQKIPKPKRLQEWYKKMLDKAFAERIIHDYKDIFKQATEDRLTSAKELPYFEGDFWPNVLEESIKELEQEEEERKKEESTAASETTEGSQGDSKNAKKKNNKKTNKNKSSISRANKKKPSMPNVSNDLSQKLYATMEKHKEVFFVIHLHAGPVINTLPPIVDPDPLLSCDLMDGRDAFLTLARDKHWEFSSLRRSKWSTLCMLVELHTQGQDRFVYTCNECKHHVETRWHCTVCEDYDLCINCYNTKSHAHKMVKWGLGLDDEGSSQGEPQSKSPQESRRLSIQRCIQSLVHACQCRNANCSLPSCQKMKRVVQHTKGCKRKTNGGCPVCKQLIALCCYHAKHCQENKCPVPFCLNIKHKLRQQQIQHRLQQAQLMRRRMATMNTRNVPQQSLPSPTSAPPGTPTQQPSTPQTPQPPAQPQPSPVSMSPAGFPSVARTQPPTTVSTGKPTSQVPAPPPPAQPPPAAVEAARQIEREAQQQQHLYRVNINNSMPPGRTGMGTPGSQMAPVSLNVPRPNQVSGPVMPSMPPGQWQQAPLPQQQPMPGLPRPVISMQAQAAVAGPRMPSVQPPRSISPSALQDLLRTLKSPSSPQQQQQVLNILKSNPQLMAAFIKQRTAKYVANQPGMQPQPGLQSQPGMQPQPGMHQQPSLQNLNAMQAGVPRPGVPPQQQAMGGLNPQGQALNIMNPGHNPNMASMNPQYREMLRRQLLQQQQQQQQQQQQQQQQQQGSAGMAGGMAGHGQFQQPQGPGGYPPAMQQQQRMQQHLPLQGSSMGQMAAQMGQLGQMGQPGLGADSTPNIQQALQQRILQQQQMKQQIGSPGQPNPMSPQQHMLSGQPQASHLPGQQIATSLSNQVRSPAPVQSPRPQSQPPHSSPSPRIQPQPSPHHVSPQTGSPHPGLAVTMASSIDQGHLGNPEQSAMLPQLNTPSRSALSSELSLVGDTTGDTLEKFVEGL
# TEST_DETAILS: CBP degradation, HiBit technology in A549 CBP HiBit cells (24 h)
# Format: cell-based
# STATED_CONDITIONS: 24 hrs post treatment
Readings of DC50 for the listed molecules

Use these answered entries as a reference point.
MOLECULE: CNC(=O)c1c[nH]c2ccc(-c3cccc4cc(-c5ccc(C(=O)NCC#Cc6ccc7occ(C8CCC(=O)NC8=O)c7c6)nc5)ncc34)cc12 (stereo not drawn)
DC50: > 1000 nM
--
MOLECULE: [2H]C1COCCC1([2H])c1cc(N2CCCc3nc(-c4ccc(C(=O)NCC#Cc5cc6c(C7CCC(=O)NC7=O)cccc6o5)nc4)ncc32)c2cc(C)c(=O)n(C)c2c1 (stereo not drawn)
DC50: 100 to 999 nM

Ask: What value of DC50 has been reported for the following molecule? CCN(c1cnc(-c2cnc(C(=O)NCC#Cc3ccc4occ(C5CCC(=O)NC5=O)c4c3)c(C)c2)nc1)c1cc(C(C)C)c2c(c1)n(C)c(=O)n2C (stereo not drawn)
Result: > 1000 nM

====

Recorded Dmax, one value per entry.
# SYSTEM_UNDER_TEST: p300 (Homo sapiens, UniProt Q09472)
# Construct: host or cells: A549 P300 HiBit cells
# Sequence (Q09472 whole entry): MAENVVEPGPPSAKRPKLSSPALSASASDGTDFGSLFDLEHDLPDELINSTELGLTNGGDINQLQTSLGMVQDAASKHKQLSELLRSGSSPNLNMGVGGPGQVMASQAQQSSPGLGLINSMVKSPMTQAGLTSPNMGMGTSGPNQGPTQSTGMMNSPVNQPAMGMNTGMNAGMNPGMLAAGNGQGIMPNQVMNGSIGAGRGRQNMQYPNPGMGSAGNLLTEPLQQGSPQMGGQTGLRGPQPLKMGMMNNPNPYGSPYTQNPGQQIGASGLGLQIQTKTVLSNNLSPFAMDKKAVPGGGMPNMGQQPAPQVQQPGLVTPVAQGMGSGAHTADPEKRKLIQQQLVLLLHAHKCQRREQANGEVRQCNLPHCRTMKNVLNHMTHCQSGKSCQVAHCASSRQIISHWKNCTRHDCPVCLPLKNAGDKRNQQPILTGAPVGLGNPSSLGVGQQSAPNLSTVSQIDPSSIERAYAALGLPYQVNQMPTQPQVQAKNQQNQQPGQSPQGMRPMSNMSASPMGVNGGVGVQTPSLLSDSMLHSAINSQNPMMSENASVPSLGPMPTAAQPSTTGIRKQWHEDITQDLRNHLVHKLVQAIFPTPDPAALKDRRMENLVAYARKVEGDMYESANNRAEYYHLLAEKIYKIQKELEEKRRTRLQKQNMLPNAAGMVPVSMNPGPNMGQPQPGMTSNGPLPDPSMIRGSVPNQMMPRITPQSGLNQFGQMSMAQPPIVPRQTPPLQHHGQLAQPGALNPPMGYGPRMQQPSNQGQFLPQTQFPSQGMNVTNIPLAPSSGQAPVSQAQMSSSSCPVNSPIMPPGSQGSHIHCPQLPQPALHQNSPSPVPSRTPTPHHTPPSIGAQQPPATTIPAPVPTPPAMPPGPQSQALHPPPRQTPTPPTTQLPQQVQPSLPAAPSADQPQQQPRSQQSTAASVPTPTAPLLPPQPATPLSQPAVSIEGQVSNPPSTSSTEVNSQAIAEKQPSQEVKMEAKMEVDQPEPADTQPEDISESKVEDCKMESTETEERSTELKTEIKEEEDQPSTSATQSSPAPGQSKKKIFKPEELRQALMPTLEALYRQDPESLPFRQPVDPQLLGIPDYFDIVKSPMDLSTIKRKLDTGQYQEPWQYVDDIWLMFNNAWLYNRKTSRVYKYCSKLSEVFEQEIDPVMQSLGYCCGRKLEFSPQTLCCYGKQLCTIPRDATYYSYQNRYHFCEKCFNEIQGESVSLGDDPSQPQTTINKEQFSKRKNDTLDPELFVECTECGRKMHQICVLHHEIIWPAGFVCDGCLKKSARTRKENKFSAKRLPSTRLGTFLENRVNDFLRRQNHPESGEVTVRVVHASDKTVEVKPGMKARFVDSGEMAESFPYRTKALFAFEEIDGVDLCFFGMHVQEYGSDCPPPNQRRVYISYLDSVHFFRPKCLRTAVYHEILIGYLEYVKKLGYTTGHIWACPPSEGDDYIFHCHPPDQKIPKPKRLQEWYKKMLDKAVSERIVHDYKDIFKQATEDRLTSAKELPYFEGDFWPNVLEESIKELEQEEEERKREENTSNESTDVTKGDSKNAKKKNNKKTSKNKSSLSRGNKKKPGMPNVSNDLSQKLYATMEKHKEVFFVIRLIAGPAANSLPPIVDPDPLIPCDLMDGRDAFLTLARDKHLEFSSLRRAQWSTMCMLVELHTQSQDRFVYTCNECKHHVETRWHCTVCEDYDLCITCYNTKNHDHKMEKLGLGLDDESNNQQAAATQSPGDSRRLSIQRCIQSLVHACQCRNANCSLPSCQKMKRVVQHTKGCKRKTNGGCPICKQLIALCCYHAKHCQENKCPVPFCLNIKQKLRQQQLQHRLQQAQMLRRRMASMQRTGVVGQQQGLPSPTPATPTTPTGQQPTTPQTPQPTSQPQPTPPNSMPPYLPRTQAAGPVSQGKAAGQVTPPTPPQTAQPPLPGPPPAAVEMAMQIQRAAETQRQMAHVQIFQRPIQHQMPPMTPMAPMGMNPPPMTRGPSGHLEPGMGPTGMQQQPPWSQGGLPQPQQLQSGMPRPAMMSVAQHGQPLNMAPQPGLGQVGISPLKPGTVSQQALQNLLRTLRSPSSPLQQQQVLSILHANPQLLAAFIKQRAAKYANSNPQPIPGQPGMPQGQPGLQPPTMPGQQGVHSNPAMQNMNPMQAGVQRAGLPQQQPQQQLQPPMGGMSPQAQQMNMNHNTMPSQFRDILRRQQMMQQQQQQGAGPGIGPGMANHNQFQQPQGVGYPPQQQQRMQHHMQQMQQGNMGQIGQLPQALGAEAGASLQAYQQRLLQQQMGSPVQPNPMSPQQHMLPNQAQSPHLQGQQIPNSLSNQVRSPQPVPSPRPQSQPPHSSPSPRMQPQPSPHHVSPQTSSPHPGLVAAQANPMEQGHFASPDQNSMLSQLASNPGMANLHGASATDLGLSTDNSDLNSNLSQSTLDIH
# TEST_DETAILS: P300 degradation, HiBit technology in A549 P300 HiBit cells (2 h)
# Type: cell-based
# STATED_CONDITIONS: A549, A549 P300 HiBit cells, 2 hrs post treatment
# Experimental: p300 and CBP degradation potency and Dmax were determined using in cell western (ICW) assay technology in H1299 cells or HiBit technology in A549 HiBit cells. A549 P300 HiBit and A549 CBP HiBit cells were plated in separate 384-well, TC treated, white-opaque, flat-bottomed microplate. […] After incubation, luminescent signal of each plate was measured using the Envision instrument (Perkin Elmer).

Known results for compounds:
COMPOUND: Cn1c(=O)n(C)c2cc(N3CCCc4cc(-c5ccc(C(=O)NCC#Cc6cc7c(C8CCC(=O)NC8=O)cccc7o6)nc5)nnc43)ccc21 (stereo not drawn)
OBSERVED_VALUE: > 80%
--
COMPOUND: Cc1cc2c(N3CCCc4nc(-c5ccc(C(=O)NCC#Cc6cc7c(C8CCC(=O)NC8=O)cccc7o6)nc5)ncc43)nc(N3CCC(C)(O)CC3)cc2n(C)c1=O (stereo not drawn)
OBSERVED_VALUE: > 80%
--
COMPOUND: CCc1cc(N2CCCc3cc(-c4ccc(C(=O)NCC#Cc5ccc6occ(C7CCC(=O)NC7=O)c6c5)nc4)c(F)cc32)c2cc(C)c(=O)n(C)c2c1 (stereo not drawn)
OBSERVED_VALUE: > 80%

Ask: What value of Dmax has been reported for the following compound? CCn1c(=O)n(C)c2ccc(N3CCOc4nc(-c5ccc(C(=O)NCC#Cc6ccc7occ(C8CCC(=O)NC8=O)c7c6)nc5)ncc43)cc21 (stereo not drawn)
Result: 20 to 39%

Ask: Request the reported Dmax associated with Cn1cc(-c2ccc3c(c2)n(C)c(=O)n3C)c2cnc(-c3ccc(C(=O)NCC#Cc4cc5c(C6CCC(=O)NC6=O)nccc5o4)nc3)cc2c1=O (stereo not drawn)
Result: > 80%

Ask: Endpoint output: Dmax of CC(C)c1cc(C(F)(F)c2ccc(-c3ccc(C(=O)NCC#Cc4ccc5occ(C6CCC(=O)NC6=O)c5c4)nc3)nc2)cc2c1n(C)c(=O)n2C (stereo not drawn) . Value?
Result: < 20%

Ask: Dmax lookup needed for CCc1cc(N(C)c2ccc(-c3cnc(C(=O)NCC#Cc4cccc(NC5CCC(=O)NC5=O)c4)c(C)c3)c(C(F)(F)F)c2)c2cc(C)c(=O)n(C)c2c1 (stereo not drawn) , thanks.
Result: 60 to 79%

Ask: Item under review: CC(C)c1cc(-c2cccc3cc(-c4ccc(C(=O)NCC#Cc5ccc6c(C(F)F)nn(C7CCC(=O)NC7=O)c6c5)nc4)ncc23)cc2c1n(C)c(=O)n2C (stereo not drawn) . Reported Dmax?
Result: 20 to 39%

Ask: Value lookup for Dmax; key = CN1CCN(c2ccc3c(c2)n(C)c(=O)n3C)c2cnc(-c3ccc(C(=O)NCC#Cc4cc5c(C6CCC(=O)NC6=O)nccc5o4)nc3)nc21 (stereo not drawn)
Result: > 80%

Ask: Please look up its Dmax: Cn1c(=O)n(C)c2cc(N3CCOc4nc(-c5ccc(C(=O)NCC#Cc6ccc7nnn(C8CCC(=O)NC8=O)c7c6)nc5)ncc43)ccc21 (stereo not drawn)
Result: 60 to 79%

Ask: Endpoint output: Dmax of Cc1cc(-c2ncc3c(n2)CCCN3c2cccc3c2cc(C)c(=O)n3C)cnc1C(=O)NCC#Cc1cc2c(C3CCC(=O)NC3=O)cccc2o1 (stereo not drawn) . Value?
Result: > 80%
